# Tested On: Rho-associated protein kinase 1 (Homo sapiens, UniProt Q13464)
# Sequence (Q13464 2-1354 limits assumed): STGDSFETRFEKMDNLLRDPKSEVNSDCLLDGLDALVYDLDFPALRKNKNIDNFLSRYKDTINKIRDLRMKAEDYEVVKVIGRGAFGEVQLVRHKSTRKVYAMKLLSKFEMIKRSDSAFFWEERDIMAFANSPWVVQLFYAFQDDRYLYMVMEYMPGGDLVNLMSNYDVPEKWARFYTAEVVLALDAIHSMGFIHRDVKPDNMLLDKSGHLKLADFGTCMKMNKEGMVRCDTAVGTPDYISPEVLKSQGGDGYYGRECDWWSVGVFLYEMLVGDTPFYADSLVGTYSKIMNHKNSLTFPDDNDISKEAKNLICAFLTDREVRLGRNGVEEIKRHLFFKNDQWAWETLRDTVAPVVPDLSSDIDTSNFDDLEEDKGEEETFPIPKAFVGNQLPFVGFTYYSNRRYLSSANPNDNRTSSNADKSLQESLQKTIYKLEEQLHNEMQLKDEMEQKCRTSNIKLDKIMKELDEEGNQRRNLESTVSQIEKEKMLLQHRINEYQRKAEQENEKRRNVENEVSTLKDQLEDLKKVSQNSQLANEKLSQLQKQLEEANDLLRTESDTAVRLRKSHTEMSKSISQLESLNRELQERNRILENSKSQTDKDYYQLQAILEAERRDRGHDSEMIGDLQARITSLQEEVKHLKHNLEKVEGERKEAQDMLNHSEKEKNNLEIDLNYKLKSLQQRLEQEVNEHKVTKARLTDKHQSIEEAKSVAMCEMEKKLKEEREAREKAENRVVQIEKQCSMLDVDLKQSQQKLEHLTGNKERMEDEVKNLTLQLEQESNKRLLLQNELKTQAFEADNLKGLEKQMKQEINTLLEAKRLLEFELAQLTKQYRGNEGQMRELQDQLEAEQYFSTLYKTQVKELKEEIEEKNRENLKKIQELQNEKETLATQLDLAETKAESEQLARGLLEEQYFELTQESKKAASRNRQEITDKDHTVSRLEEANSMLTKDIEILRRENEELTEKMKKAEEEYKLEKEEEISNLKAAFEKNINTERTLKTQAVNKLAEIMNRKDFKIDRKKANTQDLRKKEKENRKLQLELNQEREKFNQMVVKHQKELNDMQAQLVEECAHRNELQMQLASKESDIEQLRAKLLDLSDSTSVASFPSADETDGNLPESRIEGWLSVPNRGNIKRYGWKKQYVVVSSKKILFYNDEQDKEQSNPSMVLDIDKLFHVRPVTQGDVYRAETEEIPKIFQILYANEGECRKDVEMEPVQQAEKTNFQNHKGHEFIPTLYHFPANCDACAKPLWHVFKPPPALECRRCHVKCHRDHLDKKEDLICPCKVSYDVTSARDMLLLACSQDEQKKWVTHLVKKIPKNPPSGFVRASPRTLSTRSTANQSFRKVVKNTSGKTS
# Assay Details: Inhibition of ROCK1 (unknown origin) at 10 uM by ADP-Glo kinase assay
Observation Type: inhibition (%)
One number for each entry, in %.

[in] Requested read-out inhibition, target or system Rho-associated protein kinase 1 (Homo sapiens, UniProt Q13464), entry COc1cccc(OC)c1CNC(=O)c1cc(C2NC(=O)NC(C)=C2C(=O)Nc2ccc3[nH]ncc3c2)ccc1F (centres undefined)
[out] 0

Working through the 3 compounds below one at a time, give inhibition for each.
1. Fc1ccc([C@@H]2CCNC[C@H]2COc2ccc3c(c2)OCO3)cc1 [PAROXETINE]
2. CC1=C(C(=O)Nc2ccc3[nH]ncc3c2)C(c2ccc(F)c(C(=O)NCc3c(C(F)(F)F)cccc3C(F)(F)F)c2)NC(=O)N1 (centres undefined)
3. CCCn1c(CNc2cccc(C(=O)NCc3c(F)cccc3F)c2)nnc1-c1ccncn1

[out]
10
22
10

---

Give measured IC50 for each item. Keep answers brief.
# Tested On: Rhodopsin kinase GRK1 (Homo sapiens, UniProt Q15835)
# Sequence (Q15835 whole entry): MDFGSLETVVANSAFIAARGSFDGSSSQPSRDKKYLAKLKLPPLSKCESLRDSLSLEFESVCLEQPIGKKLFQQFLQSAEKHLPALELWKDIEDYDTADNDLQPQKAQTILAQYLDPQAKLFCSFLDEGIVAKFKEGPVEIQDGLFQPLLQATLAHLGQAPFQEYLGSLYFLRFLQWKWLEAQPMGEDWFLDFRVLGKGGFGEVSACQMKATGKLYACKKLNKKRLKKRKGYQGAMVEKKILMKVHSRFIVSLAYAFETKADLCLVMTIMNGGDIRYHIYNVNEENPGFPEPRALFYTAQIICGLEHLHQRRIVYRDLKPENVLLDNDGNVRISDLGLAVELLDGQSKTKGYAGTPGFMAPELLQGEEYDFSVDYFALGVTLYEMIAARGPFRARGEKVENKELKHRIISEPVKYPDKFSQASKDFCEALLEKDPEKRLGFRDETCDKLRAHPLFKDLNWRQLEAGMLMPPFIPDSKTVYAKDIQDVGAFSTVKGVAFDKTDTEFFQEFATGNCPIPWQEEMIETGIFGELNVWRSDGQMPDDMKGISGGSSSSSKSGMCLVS

Reference set, count: 8
[in] Reported IC50 for COc1cccc(CNC(=O)c2cc(C3NC(=O)NC(C)=C3C(=O)Nc3ccc4[nH]ncc4c3)ccc2F)c1 (stereo unspecified) : what is it?
[out] > 100 µM

[in] COc1ccc(CNC(=O)c2cc(C3NC(=O)NC(C)=C3C(=O)Nc3ccc4[nH]ncc4c3)ccc2F)cc1 (stereo unspecified) ?
[out] > 100 µM

[in] Now the molecule COc1cccc(OC)c1CNC(=O)Cc1cc(C2NC(=O)NC(C)=C2C(=O)Nc2ccc3[nH]ncc3c2)ccc1F (stereo unspecified)
[out] > 100 µM

[in] Continue with CC1=C(C(=O)Nc2ccc3[nH]ncc3c2)C(c2ccc(F)c(C(=O)NCCc3ccncc3)c2)NC(=O)N1 (stereo unspecified)
[out] > 100 µM

[in] Try this molecule next: CC1=C(C(=O)Nc2ccc3[nH]ncc3c2)C(c2ccc(F)c(C(=O)NCc3c(Cl)cccc3Cl)c2)NC(=O)N1 (stereo unspecified)
[out] > 100 µM

[in] Moving on to CC1=C(C(=O)Nc2ccc3[nH]ncc3c2)C(c2ccc(F)cc2)NC(=O)N1 (stereo unspecified) [GSK-180736A]
[out] > 100 µM

[in] Same question for CNC(=O)c1cc(C2NC(=O)NC(C)=C2C(=O)Nc2ccc3[nH]ncc3c2)ccc1F (stereo unspecified) please.
[out] > 100 µM

[in] Another molecule to check: CC1=C(C(=O)Nc2ccc3[nH]ncc3c2)C(c2ccc(F)c(C(=O)NCc3cccc(F)c3)c2)NC(=O)N1 (stereo unspecified)
[out] 11.9 µM

Below is a list of molecules. For each, state its recorded IC50.
1. CC1=C(C(=O)Nc2ccc3c(c2)OCO3)C(c2ccc(F)c(C(=O)NCc3ccccn3)c2)NC(=O)N1 (stereo unspecified)
2. CC1=C(C(=O)Nc2ccc3[nH]ncc3c2)C(c2ccc(F)c(C(=O)NCc3ccccc3)c2)NC(=O)N1 (stereo unspecified)
3. CC1=C(C(=O)Nc2ccc3[nH]ncc3c2)C(c2ccc(F)c(C(=O)NCc3cc(C(F)(F)F)cc(C(F)(F)F)c3)c2)NC(=O)N1 (stereo unspecified)

[out]
> 100 µM
71 µM
> 100 µM
